Cited source for all entries: ChEMBL document CHEMBL4706511

Assignment: determine reported remaining at 1.5 h, 100 ug/ml for the given compounds.
# Assay comment: Metabolic stability in human liver microsomes assessed as parent compound remaining at 100 ug/ml measured after 90 mins in presence of NADPH by LC-MS analysis
# Assay type: ADME, Microsome
# Cond: at 100 µg/mL, read-out: Stabilty
One number for each entry, in %.

FC(F)(F)c1cc2cc(c1)Nc1nc(nc(-c3cccc(C(F)(F)F)n3)n1)NCCCCCC2 = 85
FC(F)(F)c1cc2cc(c1)Nc1nc(nc(-c3cccc(C(F)(F)F)n3)n1)NCCCCCCCC2 = 72
CC(C)(O)CNc1nc(Nc2cccc(C(F)(F)F)c2)nc(-c2cccc(C(F)(F)F)n2)n1 = 81
FC(F)(F)c1cc2cc(c1)OCCCCCCNc1nc(nc(-c3cccc(C(F)(F)F)n3)n1)N2 = 85
FC(F)(F)c1cc2cc(c1)OC/C=C\CCNc1nc(nc(-c3cccc(C(F)(F)F)n3)n1)N2 = 64

Then this compound:
Check the records and state remaining at 1.5 h, 100 ug/ml for FC(F)(F)c1cc2cc(c1)Nc1nc(nc(-c3cccc(C(F)(F)F)n3)n1)NCCC/C=C/C2 90

----------
# Assay comment: AUC (0 to t) in Sprague-Dawley rat at 10 mg/kg, po measured up to 24 hrs by LC-MS/MS analysis
# Assay type: ADME, organism-based
# Parameters: route oral, dose 10 mg/kg, time <=24
# Cond: in vivo
Readout name: AUC(0-t) at 24 h (ng·h/mL)
Give bare numbers, in ng·h/mL.

Determine its reported AUC(0-t) at 24 h: CS(=O)(=O)O.FC(F)(F)c1cc2cc(c1)Nc1nc(nc(-c3cccc(C(F)(F)F)n3)n1)NCCCCCC2 2700

----------
# Target under test: Isocitrate dehydrogenase [NADP], mitochondrial (Homo sapiens, UniProt P48735, R172K)
# Sequence (P48735 40-452 R172K limits assumed): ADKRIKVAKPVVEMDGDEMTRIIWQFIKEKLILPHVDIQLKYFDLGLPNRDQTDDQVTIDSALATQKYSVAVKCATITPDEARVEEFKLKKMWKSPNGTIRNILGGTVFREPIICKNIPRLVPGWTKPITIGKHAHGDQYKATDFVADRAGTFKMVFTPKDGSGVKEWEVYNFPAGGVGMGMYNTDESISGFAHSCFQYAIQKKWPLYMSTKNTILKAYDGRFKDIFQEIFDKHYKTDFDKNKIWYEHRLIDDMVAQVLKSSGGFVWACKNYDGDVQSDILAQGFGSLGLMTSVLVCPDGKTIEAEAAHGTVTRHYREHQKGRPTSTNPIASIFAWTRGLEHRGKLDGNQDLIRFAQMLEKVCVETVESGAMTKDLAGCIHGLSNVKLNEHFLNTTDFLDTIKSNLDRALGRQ
# Assay comment: Inhibition of IDH2 R172K mutant (unknown origin) assessed as reduction in NADPH consumption using alpha-ketoglutarate and NADPH as substrate preincubated with enzyme for 15 mins followed by substrate addition by fluorescence based assay
Structures can show the parent of a compound that is named as a salt.
Record form. Attribute: log10(IC50). Fill in for each entry.
Give log10 of IC50, with IC50 taken in nM.

Solved cases (10 shown):
FC(F)(F)c1cc2cc(c1)Nc1nc(nc(-c3cccc(C(F)(F)F)n3)n1)NCCOCCCC2 = 2.71
CC(C)(O)CNc1nc(Nc2ccnc(C(F)(F)F)c2)nc(-c2cccc(C(F)(F)F)n2)n1 [ENASIDENIB MESYLATE] = 2.50
CC(C)(O)CNc1nc(Nc2ccnc(C(F)(F)F)c2)nc(-c2cccc(C(F)(F)F)n2)n1 [ENASIDENIB] = 2.43
CC(C)(O)CNc1nc(Nc2ccccc2)nc(-c2cccc(C(F)(F)F)n2)n1 = 3.16
C=CCOC(C)(C)CNc1nc(Nc2cccc(C(F)(F)F)c2)nc(-c2cccc(C(F)(F)F)n2)n1 = 1.19
Cc1cc2cc(c1)Nc1nc(nc(-c3cccc(C(F)(F)F)n3)n1)NCCOCCCC2 = 3.12
Fc1cc2cc(c1)Nc1nc(nc(-c3cccc(C(F)(F)F)n3)n1)NCCOC/C=C\C2 = 2.84
Cc1cc2cc(c1)Nc1nc(nc(-c3cccc(C(F)(F)F)n3)n1)NCCOC/C=C\C2 = 2.92
FC(F)(F)c1cc2cc(c1)Nc1nc(nc(-c3cccc(C(F)(F)F)n3)n1)NCCOC/C=C\C2 = 2.32
C=CCOC(C)(C)CNc1nc(Nc2ccccc2)nc(-c2cccc(C(F)(F)F)n2)n1 = 2.22

Quick one: give me log10(IC50) for each item below, same order please.
1. FC(F)(F)c1cc2cc(c1)OCCCCCNc1nc(nc(-c3cccc(C(F)(F)F)n3)n1)N2
2. CC1CNc2nc(nc(-c3cccc(C(F)(F)F)n3)n2)Nc2cc(cc(C(F)(F)F)c2)CCCCO1 (stereo not drawn)
3. CS(=O)(=O)O.FC(F)(F)c1cc2cc(c1)Nc1nc(nc(-c3cccc(C(F)(F)F)n3)n1)NCCCCCC2
4. Fc1cc2cc(c1)Nc1nc(nc(-c3cccc(C(F)(F)F)n3)n1)NCCOCCCC2
5. O=C1OCCCCCNc2nc(nc(-c3cccc(C(F)(F)F)n3)n2)Nc2cc1cc(C(F)(F)F)c2

[2.06, 1.25, 1.89, 2.94, 2.50]

Identify log10(IC50) associated with the compound FC(F)(F)c1cccc(-c2nc3nc(n2)Nc2cc(Cl)cc(c2)C/C=C\COCCN3)n1 2.62
